Where do these numbers come from? They come from the supplement of paper PMC10567573.

Overview of recorded protein stability index for various variants
B1: KRT18 (parent)
chain: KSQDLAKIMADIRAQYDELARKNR

# Variants of: B1
# EXPERIMENT: protein stability index of a GFP-peptide fusion (GPS, HEK-293T) (PSI 1-6); higher = more stable;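 note: lentivirally expressed fusions sorted by FACS into six bins by GFP to DsRed ratio, PSI derived from sequencing read proportions per bin multiplied by bin number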
# TEST CONTEXT: c terminus: a fixed tail appended

KSQDLAKIMADIRAQYDGLARKNR [E18G] :: 2.66

Exercise: Which measured protein stability index value corresponds to KSQDLAKIMADIRHQYDELARKNR [A14H] ?
Solution: 3.16
